target: ScBem1-D1; assay: SPOT peptide array binding signal intensity (averaged, normalized) (arbitrary units (background-subtracted, floor 0; scale differs between SH3 domains)); higher = stronger binding of the SH3 domain to the peptide
MEASURED_PARAMETER: SPOT peptide array binding signal intensity

Completed entries (count: 5):
KRKRFNLLLPKPYLT ... 22
VPVAPPPPPASLGQS ... 0.5
HKVLRPFLLRRLKKD ... 19.5
RLPAPPPPPRRGPAP ... 3.5
VTHRLRISIPGITGR ... 33.5

# get_value(readout='SPOT peptide array binding signal intensity', item= `FVLRYYILIPHEQWD` )
14.5

# query: SPOT peptide array binding signal intensity of entry `RSRRSSFAYPQQVAI`
79.5
